Reported log10 IC50, Ribosomal protein S6 kinase alpha-3 (Homo sapiens, UniProt P51812).
Please note: log10 values; quantity IC50; unit µM.

Query: Quick check: log10 IC50 on Ribosomal protein S6 kinase alpha-3 (Homo sapiens, UniProt P51812), item CCCc1cn2c(/C=N/NC(=N)N)c(-c3cccc([N+](=O)[O-])c3)nc2s1 ?
Reply: 1.12

====

Reported IC50, Ribosomal protein S6 kinase alpha-3 (Homo sapiens, UniProt P51812).
The reply should contain only the number, in µM.

Query: Quick check: IC50 on Ribosomal protein S6 kinase alpha-3 (Homo sapiens, UniProt P51812), item Cc1cn2c(/C=N/NC(=N)NN)c(-c3ccc(Cl)c([N+](=O)[O-])c3)nc2s1 ?
Reply: 18

Query: Also Cc1sc2nc(-c3cc([N+](=O)[O-])c(Cl)cc3Cl)c(/C=N/NC(=N)N)n2c1C ?
Reply: 98.5

Query: Also COc1cc([N+](=O)[O-])c(OC)cc1-c1nc2sc3ccccc3n2c1/C=N/NC(=N)N ?
Reply: 10.1

====

Reported pIC50, Serine/threonine-protein kinase Chk2 (Homo sapiens, UniProt O96017).
pIC50: −log10 of the molar value.

Consider the worked cases shown below.
Cc1cn2c(/C=N/NC(=N)NN)c(-c3ccc(Cl)c([N+](=O)[O-])c3)nc2s1	< 4.00
N=C(N)N/N=C\c1c(-c2ccc(F)cc2)nc2sccn12	< 4.00
Cc1cn2c(/C=N/NC3=NCCN3)c(-c3ccc(Cl)c([N+](=O)[O-])c3)nc2s1	< 4.00
Cc1nn2c(/C=N/NC(=N)N)c(-c3cc(Cl)sc3Cl)nc2s1	< 4.70
N=C(N)N/N=C/c1c(-c2cc(Cl)sc2Cl)nc2sc3ccccc3n12	< 4.00
Clc1cc(-c2nc3ccccn3c2/C=N/NC2=NCCN2)c(Cl)s1	< 4.70

Query: Look up pIC50 for this compound: N=C(N)N/N=C\c1c(-c2c(F)cccc2F)nc2sccn12
Reply: < 4.00

Query: Also COc1cc([N+](=O)[O-])c(OC)cc1-c1nc2sc(Cl)cn2c1/C=N/NC(=N)N/N=C/c1c(-c2cc(OC)c([N+](=O)[O-])cc2OC)nc2sc(Cl)cn12 ?
Reply: < 4.00

Query: Also N=C(N)N/N=C/c1c(-c2ccccc2)nc2sc(Cl)cn12 ?
Reply: < 4.00

Query: Also COc1cc([N+](=O)[O-])c(OC)cc1-c1nc2sc(C)nn2c1/C=N\NC(=N)N ?
Reply: < 4.70

Query: Also N=C(N)N/N=C/c1c(-c2ccc(Cl)c([N+](=O)[O-])c2)nc2sc3ccccc3n12 ?
Reply: < 4.00

====

Reported IC50, Ribosomal protein S6 kinase alpha-3 (Homo sapiens).
The reply should contain only the number, in µM.

N=C(N)N/N=C/c1c(-c2ccc(F)c([N+](=O)[O-])c2)nc2sc(Cl)cn12	3.93

Query: Quick check: IC50 on Ribosomal protein S6 kinase alpha-3 (Homo sapiens), item N=C(N)N/N=C/c1c(-c2ccc([N+](=O)[O-])cc2)nc2sccn12 ?
Reply: 5.66

Query: Also N=C(N)N/N=C/c1c(-c2ccc(N)cc2)nc2sccn12 ?
Reply: 3

Query: Also N=C(N)N/N=C/c1c(-c2ccc(Cl)c([N+](=O)[O-])c2)nc2ccccn12 ?
Reply: 2.89

Query: Also CCCc1cn2c(/C=N/NC(=N)N)c(-c3ccc([N+](=O)[O-])cc3)nc2s1 ?
Reply: 20.9
